# systemName: wild type and amino acid substituted PPO enzyme (Amaranthus tuberculatus, UniProt Q0NZW9, F204I/F420V/L400A)
# assayNotes: biochemical
# runParameters: IC50 (M)
parameter: IC50 (M)

[[record]]
smilesnotation = "C#CCN1C(=O)C(F)(F)Oc2cc(F)c(-n3c(=O)n(C)c(=S)n(C)c3=O)cc21"
observed = "8.23e-08"


====

# systemName: wild type and amino acid substituted PPO enzyme (Amaranthus tuberculatus, UniProt Q0NZW9, F420V/L397V)
# Sequence (Q0NZW9 1-534 L397V/F420V): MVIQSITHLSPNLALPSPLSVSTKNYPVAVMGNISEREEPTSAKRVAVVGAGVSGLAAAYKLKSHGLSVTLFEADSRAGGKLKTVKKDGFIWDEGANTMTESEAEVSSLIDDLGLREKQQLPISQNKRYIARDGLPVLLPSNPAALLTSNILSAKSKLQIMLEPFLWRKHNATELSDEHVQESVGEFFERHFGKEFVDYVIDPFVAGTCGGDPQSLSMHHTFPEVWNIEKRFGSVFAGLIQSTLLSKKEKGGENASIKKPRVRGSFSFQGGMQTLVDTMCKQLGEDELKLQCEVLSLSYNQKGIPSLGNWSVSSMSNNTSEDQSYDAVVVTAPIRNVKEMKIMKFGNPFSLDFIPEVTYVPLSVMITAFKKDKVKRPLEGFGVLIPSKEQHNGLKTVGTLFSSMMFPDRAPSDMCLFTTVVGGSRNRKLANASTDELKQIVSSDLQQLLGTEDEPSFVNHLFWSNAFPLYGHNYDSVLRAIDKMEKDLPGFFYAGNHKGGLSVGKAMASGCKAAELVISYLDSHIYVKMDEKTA
# assayNotes: biochemical
# runParameters: IC50 (M)
parameter: IC50 (M)

[[record]]
smilesnotation = "C#CCN1C(=O)C(F)(F)Oc2cc(F)c(-n3c(=O)n(C)c(=S)n(C)c3=O)cc21"
parameter = "IC50"
unitspec = "M"
observed = "1.21e-08"


====

# systemName: wild type and amino acid substituted PPO enzyme (Amaranthus tuberculatus, UniProt Q0NZW9, F420V/F457M/T208S)
# assayNotes: biochemical
# runParameters: IC50 (M)
parameter: IC50 (M)

[[record]]
smilesnotation = "C#CCN1C(=O)C(F)(F)Oc2cc(F)c(-n3c(=O)n(C)c(=S)n(C)c3=O)cc21"
observed = "3.41e-09"


====

# systemName: wild type and amino acid substituted PPO enzyme (Amaranthus tuberculatus, UniProt Q0NZW9, F204I/T208S)
# assayNotes: biochemical
# runParameters: IC50 (M)
parameter: IC50 (M)

[[record]]
molecule = "C#CCN1C(=O)C(F)(F)Oc2cc(F)c(-n3c(=O)n(C)c(=S)n(C)c3=O)cc21"
unitspec = "M"
observed = "1.29e-10"

[[record]]
molecule = "CC(C)N(C)S(=O)(=O)NC(=O)c1cc(-n2c(=O)cc(C(F)(F)F)n(C)c2=O)c(F)cc1Cl [saflufenacil]"
unitspec = "M"
observed = "5.89e-11"


====

# systemName: wild type and amino acid substituted PPO enzyme (Amaranthus tuberculatus, UniProt Q0NZW9, F204I/F457M/L400A/T208S)
# assayNotes: biochemical
# runParameters: IC50 (M)
parameter: IC50 (M)

[[record]]
smilesnotation = "C#CCN1C(=O)C(F)(F)Oc2cc(F)c(-n3c(=O)n(C)c(=S)n(C)c3=O)cc21"
observed = "2.88e-11"


====

# systemName: wild type and amino acid substituted PPO enzyme (Amaranthus tuberculatus, UniProt Q0NZW9, F204I/F420V/F457M/T208S)
# assayNotes: biochemical
# runParameters: IC50 (M)
parameter: IC50

[[record]]
smilesnotation = "C#CCN1C(=O)C(F)(F)Oc2cc(F)c(-n3c(=O)n(C)c(=S)n(C)c3=O)cc21"
observed = "4.72e-09 M"


====

# systemName: wild type and amino acid substituted PPO enzyme (Amaranthus tuberculatus, UniProt Q0NZW9, F204I/F420V/F457M)
# Sequence (Q0NZW9 1-534 F204I/F420V/F457M): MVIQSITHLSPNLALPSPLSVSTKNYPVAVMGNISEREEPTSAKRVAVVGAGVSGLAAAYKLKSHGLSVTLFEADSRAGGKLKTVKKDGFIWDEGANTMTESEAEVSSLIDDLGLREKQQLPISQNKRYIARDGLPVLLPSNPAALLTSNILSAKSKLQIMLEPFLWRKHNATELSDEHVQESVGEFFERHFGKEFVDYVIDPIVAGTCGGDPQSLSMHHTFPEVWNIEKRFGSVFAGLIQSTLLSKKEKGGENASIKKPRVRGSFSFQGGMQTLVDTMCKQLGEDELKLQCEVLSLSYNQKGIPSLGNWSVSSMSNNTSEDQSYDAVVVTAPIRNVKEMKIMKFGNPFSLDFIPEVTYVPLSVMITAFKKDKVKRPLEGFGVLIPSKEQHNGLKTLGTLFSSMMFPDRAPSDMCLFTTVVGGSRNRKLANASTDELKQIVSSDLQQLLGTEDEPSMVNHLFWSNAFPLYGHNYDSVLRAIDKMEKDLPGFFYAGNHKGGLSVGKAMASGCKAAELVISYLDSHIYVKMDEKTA
# assayNotes: biochemical
# runParameters: IC50 (M)
parameter: IC50 (M)

[[record]]
smilesnotation = "C#CCN1C(=O)C(F)(F)Oc2cc(F)c(-n3c(=O)n(C)c(=S)n(C)c3=O)cc21"
unitspec = "M"
observed = "2.1e-09"


====

# systemName: wild type and amino acid substituted PPO enzyme (Amaranthus tuberculatus, UniProt Q0NZW9, L397D/T208S)
# Sequence (Q0NZW9 1-534 T208S/L397D): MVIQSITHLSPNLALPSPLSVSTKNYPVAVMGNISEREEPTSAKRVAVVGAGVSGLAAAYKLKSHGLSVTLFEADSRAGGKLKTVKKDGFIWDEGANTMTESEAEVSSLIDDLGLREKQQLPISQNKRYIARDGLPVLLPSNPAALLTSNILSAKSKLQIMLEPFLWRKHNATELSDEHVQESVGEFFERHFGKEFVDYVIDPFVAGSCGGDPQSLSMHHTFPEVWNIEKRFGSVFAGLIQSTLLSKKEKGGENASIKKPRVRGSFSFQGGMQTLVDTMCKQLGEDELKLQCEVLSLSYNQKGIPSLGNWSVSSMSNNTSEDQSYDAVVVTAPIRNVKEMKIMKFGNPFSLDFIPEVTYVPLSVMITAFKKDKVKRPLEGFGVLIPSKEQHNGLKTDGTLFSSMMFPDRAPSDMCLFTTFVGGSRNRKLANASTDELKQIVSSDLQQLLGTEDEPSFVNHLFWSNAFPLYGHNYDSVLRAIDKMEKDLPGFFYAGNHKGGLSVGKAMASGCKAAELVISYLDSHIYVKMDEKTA
# assayNotes: biochemical
# runParameters: IC50 (M)
Parameter: IC50. Scope: all listed entries.
parameter: IC50 (M)

[[record]]
molecule = "C#CCN1C(=O)C(F)(F)Oc2cc(F)c(-n3c(=O)n(C)c(=S)n(C)c3=O)cc21"
observed = "1.25e-10"

[[record]]
molecule = "CC(C)N(C)S(=O)(=O)NC(=O)c1cc(-n2c(=O)cc(C(F)(F)F)n(C)c2=O)c(F)cc1Cl [saflufenacil]"
observed = "4.08e-07"


====

Parameter: IC50. Scope: all listed entries.
# systemName: wild type and amino acid substituted PPO enzyme (Amaranthus tuberculatus, UniProt Q0NZW9, F420V/T208S)
# Sequence (Q0NZW9 1-534 T208S/F420V): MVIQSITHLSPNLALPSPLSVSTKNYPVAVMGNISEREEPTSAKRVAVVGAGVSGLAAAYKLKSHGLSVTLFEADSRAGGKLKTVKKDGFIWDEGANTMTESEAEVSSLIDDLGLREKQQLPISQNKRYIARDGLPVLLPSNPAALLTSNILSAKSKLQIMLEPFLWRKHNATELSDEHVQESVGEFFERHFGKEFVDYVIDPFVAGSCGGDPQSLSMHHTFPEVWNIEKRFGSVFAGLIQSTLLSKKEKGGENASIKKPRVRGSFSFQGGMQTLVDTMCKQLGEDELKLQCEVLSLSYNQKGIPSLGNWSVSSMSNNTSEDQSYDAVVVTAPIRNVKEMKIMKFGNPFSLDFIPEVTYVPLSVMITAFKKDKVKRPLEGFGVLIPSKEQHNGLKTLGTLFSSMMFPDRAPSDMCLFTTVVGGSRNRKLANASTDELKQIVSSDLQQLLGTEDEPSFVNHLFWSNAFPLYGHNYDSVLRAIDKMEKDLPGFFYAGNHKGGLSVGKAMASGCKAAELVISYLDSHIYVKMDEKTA
# assayNotes: biochemical
# runParameters: IC50 (M)
parameter: IC50 (M)

[[record]]
compound = "CC(C)N(C)S(=O)(=O)NC(=O)c1cc(-n2c(=O)cc(C(F)(F)F)n(C)c2=O)c(F)cc1Cl [saflufenacil]"
observed = "8.48e-07"

[[record]]
compound = "C#CCN1C(=O)C(F)(F)Oc2cc(F)c(-n3c(=O)n(C)c(=S)n(C)c3=O)cc21"
observed = "2.34e-09"

